// provenance: patent US8779144B2

half-life at 1 μM reference
TEST METHOD NOTES: Half-life in human liver microsomes (HLM)
Type: in vitro ADME
ASSAY CONTEXT: 1 μM compound, 0.78 mg/mL HLM, NADPH, pH 7.4, 37° C.

# COMPOUND, UNITS, half-life at 1 μM
rows = [
    ("O=C(NCC1(O)CCCCCC1)c1cccc2c(=O)n(Cc3ccc4c(c3)OCCO4)ccc12", "min", 13.8),
    ("Cn1ccc2c(C(=O)NCC3(O)CCCCCC3)cccc2c1=O", "min", 22.8),
    ("O=C(NCC1(O)CCCCCC1)c1cccc2c(=O)n(C(CO)CO)ccc12", "min", 31.8),
    ("O=C(NCC12CC3CC(CC(C3)C1)C2)c1cccc2c(=O)[nH]ccc12", "min", 18.6),
    ("C[C@H](C(N)=O)n1ccc2c(C(=O)NCC3CCCCCC3)cccc2c1=O", "min", 36),
    ("C[C@@H](C(N)=O)n1ccc2c(C(=O)NCC3CCCCCC3)cccc2c1=O", "min", 66),
    ("O=C(NCC1CCCCCC1)c1cccc2c(=O)n(C(CO)CO)ccc12", "min", 51),
    ("CC(C)C(CO)n1ccc2c(C(=O)NCC3(O)CCCCCC3)cccc2c1=O (centres unmarked)", "min", 38.4),
]

====

Tested on: IL-1β release from THP-1 cells
TEST METHOD NOTES: IL-1β release assay in differentiated THP-1 cells stimulated with BzATP (ELISA)
Format: cell-based
ASSAY CONTEXT: Homo sapiens, released IL-1β as in Example 9, four parameter logistic fit, read-out: IL-Iβ IC50
Method: THP-1 cells (ATCC Cat #285-IF-100) are plated in 96 well plates at a concentration of 200,000 cells per well and allowed to differentiate in RPMI-1640 media (ATCC Cat #30-2001) containing 10% FBS, 100 IU/mL penicillin, 100 ug/mL streptomycin, 100 ng/mL LPS and 100 ng/mL IFN-γ for 16 hours. […] 30 uL of cell supernatant is then collected and IL-113 levels determined via ELISA (R&D systems Cat. # HSLB50) according to manufacturer's recommendations using the Tecan Safire plate reader. […]
pIC50: −log10 of the molar value.
Cut-off 7 on pIC50, inclusive. At or above means TRUE; below means FALSE.

# COMPOUND STRUCTURE, TEST TARGET, LABEL VALUE
records = [
    ("O=C(NCCc1ccccc1Cl)c1ncnc2c1CCN(Cc1ccccc1)C2", "IL-1β release from THP-1 cells", "FALSE"),
    ("C[C@@H](C(N)=O)n1ccc2c(C(=O)NCC34CC5CC(CC(C5)C3)C4)cccc2c1=O", "IL-1β release from THP-1 cells", "TRUE"),
    ("O=C(NCC1CCCCC1)c1cccc2c(=O)n(C(CO)CO)ccc12", "IL-1β release from THP-1 cells", "FALSE"),
    ("O=C(NCc1ccc(Cl)c(C(F)(F)F)c1)c1cccc2c(=O)n(C3CC3)ccc12", "IL-1β release from THP-1 cells", "TRUE"),
    ("O=C(NCC1(O)CCCCCC1)c1cccc2c(=O)n(C(CO)CO)ccc12", "IL-1β release from THP-1 cells", "FALSE"),
    ("C[C@H](CO)n1ccc2c(C(=O)NCC3CCCCCC3)cccc2c1=O", "IL-1β release from THP-1 cells", "TRUE"),
]

====

A collection of compounds and their measured half-life at 1 μM
TEST METHOD NOTES: Half-life in human liver microsomes (HLM)
Assay type: in vitro ADME
ASSAY CONTEXT: 1 μM compound, 0.78 mg/mL HLM, NADPH, pH 7.4, 37° C.

# COMPOUND, UNITS, half-life at 1 μM
data = [
    ("CC1(C)CCCC(O)(CNC(=O)c2cccc3c(=O)n(C(CO)CO)ccc23)C1 (stereo not drawn)", "min", 38.4),
    ("C[C@H](C(N)=O)n1ccc2c(C(=O)NCC34CC5CC(CC(C5)C3)C4)cccc2c1=O", "min", 19.2),
    ("O=C(NCC1(O)CCCCCC1)c1cccc2c(=O)n(CCO)ccc12", "min", 42.6),
    ("O=C(NCC1(O)CCCCCC1)c1cccc2c(=O)n(CC3CCOCC3)ccc12", "min", 15.6),
    ("O=C(NCC1CCCCCC1)c1cccc2c(=O)n(CCO)ccc12", "min", 18),
    ("O=C(NCC1(O)CCCCCC1)c1cccc2c(=O)[nH]ccc12", "min", 23.4),
]

====

Tested on: IL-1β release from THP-1 cells
TEST METHOD NOTES: IL-1β release assay in differentiated THP-1 cells stimulated with BzATP (ELISA)
Assay type: cell-based
ASSAY CONTEXT: Homo sapiens, released IL-1β as in Example 9, four parameter logistic fit, read-out: IL-Iβ IC50
Listing of entries alongside the reported IC50.

# COMPOUND, UNITS, VALUE COMPARATOR, IC50
records = [
    ("C[C@H](NC(=O)c1cccc2c(=O)n([C@@H](C)C(N)=O)ccc12)c1ccc(Cl)cc1 [Compound 2066]", "nM", ">", 1000),
    ("O=C(NCC1CCCCCC1)c1cccc2c(=O)n(C3CC3)ccc12 [Compound 2070]", "nM", "=", 16.5),
    ("C[C@H](C(N)=O)n1ccc2c(C(=O)NCC3(O)CCCCCC3)cccc2c1=O [Compound 2057]", "nM", "=", 26.1),
    ("Cc1ccc2c(c1C(=O)NCc1ccc(C(F)(F)F)c(F)c1)CCN(C(=O)C1(C)CC1)C2 [Compound 2082]", "nM", "=", 667),
]

====

Test system: IL-1β release from THP-1 cells
TEST METHOD NOTES: IL-1β release assay in differentiated THP-1 cells stimulated with BzATP (ELISA)
Type: cell-based
ASSAY CONTEXT: Homo sapiens, released IL-1β as in Example 9, four parameter logistic fit, read-out: IL-Iβ IC50
QUANTITY KIND: IC50 (nM)

# COMPOUND, TEST TARGET, QUANTITY KIND, VALUE COMPARATOR, MEAS VALUE
measured = [
    ("C[C@@H](NC(=O)c1cccc2c(=O)n([C@@H](C)C(N)=O)ccc12)c1ccc(Cl)cc1 [Compound 2067]", "IL-1β release from THP-1 cells", "IC50", ">", 1000),
    ("C[C@H](C(N)=O)n1ccc2c(C(=O)NCc3ccc(Cl)c(Cl)c3)cccc2c1=O [Compound 2060]", "IL-1β release from THP-1 cells", "IC50", "=", 38.2),
    ("CC(C(N)=O)n1ccc2c(C(=O)NCC3CCCCC3)cccc2c1=O (centres unmarked) [Compound 2049]", "IL-1β release from THP-1 cells", "IC50", "=", 122),
    ("CC1(C)CCCC(O)(CNC(=O)c2cccc3c(=O)n(C(CO)CO)ccc23)C1 (centres unmarked) [Compound 2043]", "IL-1β release from THP-1 cells", "IC50", "=", 23),
    ("C[C@@H](C(N)=O)n1ccc2c(C(=O)NCC3CCCCCC3)cccc2c1=O [Compound 2063]", "IL-1β release from THP-1 cells", "IC50", "=", 17.3),
    ("COCC(O)Cn1ccc2c(C(=O)NCC3(O)CCCC(C)(C)C3)cccc2c1=O (centres unmarked) [Compound 2046]", "IL-1β release from THP-1 cells", "IC50", ">", 1000),
    ("O=C(NCC1CCCCC1)c1cccc2c(=O)n(CCO)ccc12 [Compound 2052]", "IL-1β release from THP-1 cells", "IC50", "=", 694),
    ("C[C@@H](C(N)=O)n1ccc2c(C(=O)NCc3ccc(Cl)c(C(F)(F)F)c3)cccc2c1=O [Compound 2059]", "IL-1β release from THP-1 cells", "IC50", "=", 77.4),
]

====

System: IL-1β release from THP-1 cells
TEST METHOD NOTES: IL-1β release assay in differentiated THP-1 cells stimulated with BzATP (ELISA)
Assay type: cell-based
ASSAY CONTEXT: Homo sapiens, released IL-1β as in Example 9, four parameter logistic fit, read-out: IL-Iβ IC50
# log10 of IC50 per record follows
QUANTITY KIND: log10 of IC50 (log10 of the value in nM)

# COMPOUND, log10 of IC50
records = [
    ("C[C@@H](C(N)=O)n1ccc2c(C(=O)NCC3(O)CCCCCC3)cccc2c1=O [Compound 2056]", 2.70),
    ("CC1(C)OCC(Cn2ccc3c(C(=O)NCC4CCCCCC4)cccc3c2=O)O1 (centres unmarked) [Compound 2038]", 2.78),
    ("O=C(NCC1CCCCCC1)c1cccc2c(=O)n(CC(O)CO)ccc12 (centres unmarked) [Compound 2039]", 2.41),
    ("CC1(C)CC(C)(C)CC(O)(CNC(=O)c2cccc3c(=O)n(C(CO)CO)ccc23)C1 [Compound 2054]", 2.37),
    ("O=C(NCC1CCCCCC1)c1cccc2c(=O)n(CCO)ccc12 [Compound 2041]", 1.73),
    ("CC(C)C(CO)n1ccc2c(C(=O)NCC3(O)CCCCCC3)cccc2c1=O (centres unmarked) [Compound 2035]", 0.75),
    ("O=C(NCc1ccc(F)c(C(F)(F)F)c1)c1cccc2c(=O)n(C3CC3)ccc12 [Compound 2075]", 2.20),
    ("O=C(NCc1ccc(Cl)c(C(F)(F)F)c1)c1cccc2c(=O)n(C(CO)CO)ccc12 [Compound 2053]", 1.61),
    ("O=C(NCC1(O)CCCCCC1)c1cccc2c(=O)n(Cc3ccc(F)cc3)ccc12 [Compound 2031]", 1.62),
    ("O=C(NCC1CCCCCC1)c1cccc2c(=O)n(Cc3ccc4c(c3)OCCO4)ccc12 [Compound 2036]", 1.06),
    ("O=C(NCC1(O)CCCCCC1)c1cccc2c(=O)n(CCO)ccc12 [Compound 2048]", 2.51),
    ("Cc1ccc2c(c1C(=O)NCc1ccc(C(F)(F)F)c(F)c1)CCN(C(=O)C1CC1)C2 [Compound 2080]", 2.55),
    ("Cn1ccc2c(C(=O)NCC3(O)CCCCCC3)cccc2c1=O [Compound 2032]", 1.69),
    ("O=C(NCC1(O)CCCCCC1)c1cccc2c(=O)[nH]ccc12 [Compound 2030]", 1.90),
    ("O=C(NCC12CC3CC(CC(C3)C1)C2)c1cccc2c(=O)[nH]ccc12 [Compound 2028]", -0.14),
    ("O=C(NCc1cccc(C(F)(F)F)c1F)c1cccc2c(=O)n(C3CC3)ccc12 [Compound 2077]", 2.21),
]
